meta.source: patent US20240034786A1

Please provide measured internalization, Fab-ZAP on HCC-1954, Max Inh % for the entries that follow.
# System name: Human P-cadherin on cells (human, UniProt P22223 108-829)
# Sequence (P22223 108-829): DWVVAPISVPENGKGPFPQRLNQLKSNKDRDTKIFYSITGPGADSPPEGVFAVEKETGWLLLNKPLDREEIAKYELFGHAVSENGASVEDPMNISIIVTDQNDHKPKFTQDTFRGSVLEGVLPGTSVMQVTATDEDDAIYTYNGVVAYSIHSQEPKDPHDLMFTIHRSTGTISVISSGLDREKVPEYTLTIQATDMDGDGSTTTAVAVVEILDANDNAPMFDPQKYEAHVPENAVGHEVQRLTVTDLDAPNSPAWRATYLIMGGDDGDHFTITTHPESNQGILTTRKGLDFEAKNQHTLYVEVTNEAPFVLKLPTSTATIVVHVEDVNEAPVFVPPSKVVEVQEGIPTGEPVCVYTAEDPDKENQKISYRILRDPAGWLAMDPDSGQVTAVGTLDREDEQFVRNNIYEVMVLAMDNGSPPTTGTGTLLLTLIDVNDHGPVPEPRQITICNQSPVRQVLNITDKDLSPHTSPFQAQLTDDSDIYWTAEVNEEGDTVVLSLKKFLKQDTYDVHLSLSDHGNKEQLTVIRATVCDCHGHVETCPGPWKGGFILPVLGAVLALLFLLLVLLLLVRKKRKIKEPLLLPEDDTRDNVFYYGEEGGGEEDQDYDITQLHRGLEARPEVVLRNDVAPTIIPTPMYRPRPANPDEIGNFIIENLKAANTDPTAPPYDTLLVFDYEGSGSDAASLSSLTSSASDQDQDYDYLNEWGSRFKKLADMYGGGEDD
# Test summary: cell-based or functional assay
Your answer should be a plain number; it is taken to be in %.

Given the entry W3195-1.53.1-p7-uIgG1LV320 (antibody, V domains shown, also called W3195-1.53.1-p7-uIgG1V320; W3195-p7-V320 antibody) VH: QVQLQESGPGLVKPSETLSLTCTVSGGSVISDNYYWTWVRQPPGKGLEFIGYIYYRGSTNYNPSLKNRVIISIDTSRNQFSLDLNSVTAADTAVYYCARDRRTGSSLPFDNWGQGTLVTVSS VL: SYELTQPPSVSVSPGQTAQITCSGDKLGDKFASWYQQKSGQSPVVVIYQDNKRPSGFPERFSGSNSGNTATLTISGTQAMDEADYYCQAWDSSIVVFGGGTKLTVLG , report its measured internalization, Fab-ZAP on HCC-1954, Max Inh %. 79

Please give the measured internalization, Fab-ZAP on HCC-1954, Max Inh % for this binder: W3195-1.53.1-p6-uIgG1LV320 (antibody, V domains shown, also called W3195-1.53.1-p6-uIgG1V320; W3195-p6-V320 antibody) VH: QVQLQESGPGLVKPSETLSLTCTVSGGSVISDNYYWTWVRQPPGKGLEFIGYIYYRGSTNYNPSLKNRVIISIDTSRNQFSLDLNSVTAADTAVYYCARDRRTGTSLPFDNWGQGTLVTVSS VL: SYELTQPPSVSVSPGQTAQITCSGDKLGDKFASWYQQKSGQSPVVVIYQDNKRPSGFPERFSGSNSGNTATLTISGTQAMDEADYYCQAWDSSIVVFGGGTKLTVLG 79

Could you share which internalization, Fab-ZAP on HCC-1954, Max Inh % value was measured for W3195-1.53.1-p4-uIgG1LV320 (antibody, V domains shown, V320 = IgG1 Fc with L234A/L235A; also called W3195-1.53.1-p4-uIgG1V320; W3195-p4-V320 antibody) VH: QVQLQESGPGLVKPSETLSLTCTVSGGSVISDNYYWTWVRQPPGKGLEFIGYIYYRGSTNYNPSLKNRVIISIDTSRNQFSLDLNSVTAADTAVYYCARDRRTGNALPFDNWGQGTLVTVSS VL: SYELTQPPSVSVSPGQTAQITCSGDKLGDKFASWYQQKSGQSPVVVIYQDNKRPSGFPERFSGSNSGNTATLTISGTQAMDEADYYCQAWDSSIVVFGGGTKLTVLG ? 80

Entry W3195-1.53.1-p5-uIgG1LV320 (antibody, V domains shown, also called W3195-1.53.1-p5-uIgG1V320; W3195-p5-V320 antibody) VH: QVQLQESGPGLVKPSETLSLTCTVSGGSVISDNYYWTWVRQPPGKGLEFIGYIYYRGSTNYNPSLKNRVIISIDTSRNQFSLDLNSVTAADTAVYYCARDRRTGQSLPFDNWGQGTLVTVSS VL: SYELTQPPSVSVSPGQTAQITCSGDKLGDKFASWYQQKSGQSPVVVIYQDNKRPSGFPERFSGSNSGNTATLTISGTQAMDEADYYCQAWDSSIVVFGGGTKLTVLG has what internalization, Fab-ZAP on HCC-1954, Max Inh %? 82
